molecular target: T1, hSIRPαV1D1 with histidine tag (human, UniProt P78324 31-147); assay: SPR (Biacore 3000), IgG captured on anti-human IgG, His-tagged D1 analyte
T1 construct: analyte of the Biacore experiments; also called first immunoglobulin-like domain of human SIRPα variant V1; not shown: histidine tag
T1 sequence (P78324 31-147 limits assumed): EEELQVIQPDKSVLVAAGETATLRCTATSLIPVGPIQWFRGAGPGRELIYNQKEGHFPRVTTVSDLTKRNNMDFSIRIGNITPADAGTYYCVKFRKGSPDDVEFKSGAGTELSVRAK
REPORTED PROPERTY: Kd (nM)
Return type: number; implicit unit nM.

These solved cases illustrate the format of a correct answer.
BINDER | REPORTED PROPERTY | UNIT ABBREVIATION | NUMERIC READOUT
Ab11_G4 (antibody, human IgG4 S228P, kappa, V domains shown, human IgG4 format) VH: EVQLVESGGGLVKPGGSLRLSCAASGFTFSSYVMSWVRQTPGKGLEWVATISSGGTYTYYPDSVKGRFTLSRDNAKNSLYLQMNSLRAEDTAVYYCASQLTGSEFDYWGQGTTVTVSS VL: DIVITQSPASLAVSLGERATISCRASESVDSYGNSFMHWYQQKPGQPPKLLIYRASNLESGVPDRFSGSGSRTDFTLTINPLQAEDVATYYCHQSGDLPWTFGGGTKVEIKR | Kd | nM | 231
Ab8_G4 (antibody, human IgG4 S228P, kappa, V domains shown, human IgG4 format) VH: EVQLVESGGGLVKPGGSLRLSCAASGFTFSSYVMSWVRQTPGKGLEWVATISSGGTYTYYPESVKGRFTLSRDNAKNSLYLQMNSLRAEDTAVYYCASQLTGSEFDYWGQGTTVTVSS VL: DIVMTQSPASLAVSLGERATISCRASESVDSYGNSFMHWYQQKPGQPPKLLIYRASNLESGVPDRFSGSGSRTDFTLTINPLQAEDVATYYCHQSADLPWTFGGGTKVEIKR | Kd | nM | 411
Ab9_G4 (antibody, human IgG4 S228P, kappa, V domains shown, human IgG4 format) VH: EVQLVESGGGLVKPGGSLRLSCAASGFTFSSYVMSWVRQTPGKGLEWVATISSGGTYTYYPNSVKGRFTLSRDNAKNSLYLQMNSLRAEDTAVYYCVSSMTGSSFDYWGQGTTVTVSS VL: DIVITQSPASLAVSLGERATISCRASESVDSYGNSFMHWYQQKPGQPPKLLIYRASNLESGVPDRFSGSGSRTDFTLTINPLQAEDVATYYCHQSSEQLPWTFGGGTKVEIKR | Kd | nM | 102
Ab1_G4 (antibody, human IgG4 S228P, kappa, V domains shown, human IgG4 format, kappa light chain, made in EXPICHO cells) VH: EVQLVESGGGLVKPGGSLRLSCAASGFTFSSYVMSWVRQTPGKGLEWVATISSGGTYTYYPSSVKGRFTLSRDNAKNSLYLQMNSLRAEDTAVYYCASSLTGSSFDYWGQGTTVTVSS VL: DIVLTQSPASLAVSLGERATISCRASESVDLYGTSFMHWYQQKPGQPPKLLIYRASNLESGVPDRFSGSGSRTDFTLTINPLQAEDVATYYCHQSSDELPWTFGGGTKVEIKR | Kd | nM | 67.9

Exercise: Form field: reported Kd of Ab1_G2 (antibody, human IgG2, V domains shown) VH: EVQLVESGGGLVKPGGSLRLSCAASGFTFSSYVMSWVRQTPGKGLEWVATISSGGTYTYYPSSVKGRFTLSRDNAKNSLYLQMNSLRAEDTAVYYCASSLTGSSFDYWGQGTTVTVSS VL: DIVLTQSPASLAVSLGERATISCRASESVDLYGTSFMHWYQQKPGQPPKLLIYRASNLESGVPDRFSGSGSRTDFTLTINPLQAEDVATYYCHQSSDELPWTFGGGTKVEIKR
Solution: 50.7
